# SYSTEM UNDER TEST: recombinant hMAO-B (Homo sapiens)
# Sequence (P27338 1-520): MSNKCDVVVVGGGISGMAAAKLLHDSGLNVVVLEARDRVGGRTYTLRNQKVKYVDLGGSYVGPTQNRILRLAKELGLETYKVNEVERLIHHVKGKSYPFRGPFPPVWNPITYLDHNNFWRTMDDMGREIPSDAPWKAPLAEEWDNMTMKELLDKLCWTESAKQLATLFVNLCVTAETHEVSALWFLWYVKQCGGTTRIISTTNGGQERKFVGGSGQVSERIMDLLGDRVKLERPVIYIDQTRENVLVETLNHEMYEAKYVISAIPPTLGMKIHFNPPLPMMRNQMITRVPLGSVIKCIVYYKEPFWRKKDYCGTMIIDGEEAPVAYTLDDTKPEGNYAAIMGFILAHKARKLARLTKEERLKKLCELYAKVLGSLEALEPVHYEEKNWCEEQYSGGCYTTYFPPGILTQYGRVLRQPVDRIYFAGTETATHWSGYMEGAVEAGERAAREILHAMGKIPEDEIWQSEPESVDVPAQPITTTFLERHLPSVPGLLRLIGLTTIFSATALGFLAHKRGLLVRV
# EXPERIMENT DESCRIPTION: hMAO-B inhibitory assay
ATTRIBUTE MEASURED: pIC50
// scale note: pIC50 = -log10(conc_M); give the bare number

Please give measured pIC50 of the following entry: C=C(C)[C@H](CC=C(C)C)Cc1c(O)cc(OC)c2c1O[C@H](c1ccc(O)cc1O)CC2=O
3.70
